Assay: qHTS for Stage-Specific Inhibitors of Vaccinia Orthopoxvirus: mCherry Reporter Primary qHTS; further: nearly all actives have a fitted effect of over 35% in size
Conditions: Vaccinia virus mCherry reporter infection, fluorescence; series mostly up to 36.5 µM
Out of some 310,000 compounds screened, about 1,900 (0.61%) were called active. Roughly 8% stayed inconclusive and do not appear here. The call rests on the fitted dose curve; tested in A549 cells. This is one part of a sample in which actives are shown more often than they occur.
Hi there, use one of these labels in your reply, thanks! 1 for active, 0 for inactive

compound	category_label
CCCc1nc2c3ccccc3ccn2c1Cc1ccccc1C(F)(F)F	0
O=C(C1CC(=O)N(C2CCCC2)C1)N1CCN(c2cccc(C(F)(F)F)c2)CC1 (stereo not drawn)	1
CC(C)=CCc1c(O)c(CC=C(C)C)c2occ(-c3ccc(O)cc3)c(=O)c2c1O	0

# next compound below
What was the test verdict on Cc1cc2nc(-c3ccc(Cl)cc3)c(Cc3cccc(F)c3)n2c(C)c1Br ? 0

###

Assay: qHTS for Stage-Specific Inhibitors of Vaccinia Orthopoxvirus: mCherry Reporter Primary qHTS; further: nearly all actives have a fitted effect of over 35% in size
Settings: Vaccinia virus mCherry reporter infection, fluorescence; series mostly up to 36.5 µM
Hit rate of the full screen: of about 310,000 compounds, about 1,900 (0.61%) were called active. Another 8% or so got no clear call; they are omitted. Calls follow the shape of the full dose curve; tested in A549 cells. What follows is part of a selection rich in actives, with near analogues and random picks from the rest.
Just give me one of these, please: active, inactive

molecule	category_label
Cc1nc2ccccc2cc1C(=O)N/N=C/c1ccc([N+](=O)[O-])cc1	inactive
Cn1nccc1CNC(=O)c1ccnn1C	inactive
CCCc1ccc(-c2c(C)sc(NC(=O)c3ccnn3C)c2C#N)cc1	active
CC(C)c1cc(C(=O)NC2CCCCCC2)c2ccccc2n1	inactive
CCc1ccc2c(c1)C1(NN=C(c3ccccc3)S1)C(=O)N2 (centres undefined)	active
C/C(=N\NC(=O)c1ccccc1F)c1ccccn1	active
COc1ccc2[nH]c3c(C)c4cc[n+](C)cc4c(C)c3c2c1	active
Cc1sc(NC(=O)C2=COCCO2)c(C#N)c1C	inactive

Can you look up the reported call for Cc1ccc(S(=O)(=O)N2C[C@H]3n4c(=O)ccc(=O)n4C[C@H](OC(=O)NC4CCCC4)[C@@]3(O)C2)cc1 for me? inactive
